Molecular target: HIV-1 PR (Human immunodeficiency virus type 1 group M subtype B, UniProt P04585)
Experiment: HIV-protease inhibitory activity assay (FRET peptide substrate)
Conditions: Test Example 1
readout_kind: IC50

Example entries begin here.
[[record]]
compound = "COc1ccc(S(=O)(=O)N(CC2CCC(=O)N2)CC(O)C(Cc2ccc(OCc3ccccc3-c3sc4c(c3C(=O)O)CC(C)(C)CC4)cc2)NC(=O)OC2COC3OCCC23)cc1 (stereo not shown) [Compound I-838]"
readout_kind = "IC50"
value_reported = "0.76 nM"

[[record]]
compound = "COc1ccc(S(=O)(=O)N(CC(C)C)CC(O)C(Cc2ccc(NC3c4ccccc4C(=O)N3c3sc4c(c3C(=O)O)CC(C)(C)CC4)cc2)NC(=O)OC2COC3(C)OCCC23)cc1 (stereo not shown) [Compound I-536]"
readout_kind = "IC50"
value_reported = "2.1 nM"

[[record]]
compound = "COc1ccc(S(=O)(=O)N(CC(C)C)C[C@@H](O)[C@H](Cc2ccc(OCc3ccc(-c4ccc(F)cc4F)cc3C(=O)NC(N)=O)cc2)NC(=O)O[C@H]2CO[C@@]3(C)OCC[C@@H]23)cc1 [Compound I-24]"
readout_kind = "IC50"
value_reported = "1.39 nM"


Would you mind listing IC50 for each of the following compounds?
1. COc1ccc(S(=O)(=O)N(CC(C)C)CC(O)C(Cc2ccc(OCCNC(=O)c3cc(C)cc(C)c3O)cc2)NC(=O)OC2COC3(C)OCCC23)cc1 (stereo not shown) [Compound I-171]
2. COc1ccc(S(=O)(=O)N(CC(C)C)CC(O)C(Cc2ccc(OCCn3ncc(C(=O)O)c3OC(C)C)cc2)NC(=O)OC2COC3(C)OCCC23)cc1 (stereo not shown) [Compound I-309]

OUT:
0.94 nM
2 nM

====

Assay: Evaluation of total body clearance (CLtot), intravenous administration
Type: in vivo, Sprague-Dawley (SD)
Details: rat (SD), intravenous administration 0.5-10 mg/kg; CLtot = dose/AUC
rat_CLt vs 200 mL/h/kg: less than gives YES; not less than gives NO.

[[record]]
molecule = "COc1ccc(S(=O)(=O)N(CC(C)C)CC(O)C(Cc2ccc(NCc3cc(-c4sc5c(c4C(=O)O)CC(C)(C)CC5)ccc3C)cc2)NC(=O)OC2COC3(C)OCCC23)cc1 (centres unmarked)"
class = "NO"

[[record]]
molecule = "COc1ccc(S(=O)(=O)N(CC2CCC2)CC(O)C(Cc2ccc(NCc3ccccc3C(=O)Nc3sc4c(c3C(=O)O)CC(C)(C)CC4)cc2)NC(=O)OC2COC3OCCC23)cc1 (centres unmarked)"
class = "YES"

[[record]]
molecule = "COc1ccc(S(=O)(=O)N(CC(C)C)CC(O)C(Cc2ccc(NCc3ccc(F)c(-c4sc5c(c4C(=O)O)CC(C)(C)CC5)c3)cc2)NC(=O)OC2COC3(C)OCCC23)cc1 (centres unmarked)"
class = "YES"

[[record]]
molecule = "COc1ccc(S(=O)(=O)N(CC(C)C)CC(O)C(Cc2ccc(NCc3cc(C4=CCCCC4)ccc3-c3sc4c(c3C(=O)O)CC(C)(C)CC4)cc2)NC(=O)OC2COC3(C)OCCC23)cc1 (centres unmarked)"
class = "YES"


Turning now to a further record.
IN: Here's an entry: COc1ccc(S(=O)(=O)N(CC(C)C)CC(O)C(Cc2ccc(OC3CN(c4cc(C(F)(F)F)ccc4-c4sc5c(c4C(=O)O)CC(C)(C)CC5)C3)cc2)NC(=O)OC2COC3(C)OCCC23)cc1 (centres unmarked) . Is its rat_CLt below 200 mL/h/kg?
OUT: YES

====

Molecular target: HIV-1 PR (Human immunodeficiency virus type 1 group M subtype B, UniProt P04585)
Assay: HIV-protease inhibitory activity assay (FRET peptide substrate)
Conditions: Test Example 1
Could you please report measured pIC50 for the items listed next?
One number for each entry, as −log10 of the molar value.

Solved cases (4 shown):
[[record]]
compound = "COc1ccc(S(=O)(=O)N(CC(C)C)CC(O)C(Cc2ccc(N(C)Cc3nc(N4CCOCC4)sc3-c3sc4c(c3C(=O)O)CC(C)(C)CC4)cc2)NC(=O)OC2COC3(C)OCCC23)cc1 (centres unmarked) [Compound I-757]"
value_reported = 8.52

[[record]]
compound = "COc1ccc(S(=O)(=O)N(CC(C)C)CC(O)C(Cc2ccc(NCc3csc(-c4sc5c(c4C(=O)O)CC(C)(C)CC5)n3)cc2)NC(=O)OC2COC3(C)OCCC23)cc1 (centres unmarked) [Compound I-295]"
value_reported = 8.66

[[record]]
compound = "CC(C)CN(CC(O)C(Cc1ccc(NCc2ccccc2-c2sc3c(c2C(=O)O)CC(C)(C)CC3)cc1)NC(=O)OC1COC2(C)OCCC12)S(=O)(=O)c1ccc(N)cc1 (centres unmarked) [Compound I-476]"
value_reported = 8.70

[[record]]
compound = "COc1ccc(S(=O)(=O)N(CC(C)C)CC(O)C(Cc2ccc(CN3CCc4c(cccc4-c4sc5c(c4C(=O)O)CC(C)(C)CC5)C3)cc2)NC(=O)OC2COC3(C)OCCC23)cc1 (centres unmarked) [Compound I-388]"
value_reported = 8.82


# context switch: different compound, same pIC50
For reference, reported pIC50 for COc1ccc(S(=O)(=O)N(CC(C)C)CC(O)C(Cc2ccc(OCc3ccccc3OCC(=O)O)cc2)NC(=O)OC2COC3(C)OCCC23)cc1 (centres unmarked) [Compound I-311] stands at 8.73

====

Molecular target: UniProt P04585
Test: HIV-protease inhibitory activity assay (FRET peptide substrate)
Settings: Test Example 1
Consider the following compounds; for each one, report its IC50.
Give bare numbers, in nM.

Solved cases below.
[[record]]
compound = "COc1ccc(S(=O)(=O)N(CC(C)C)CC(O)C(Cc2ccc(N(C)Cc3cc(-c4sc5c(c4C(=O)O)CC(C)(C)CC5)co3)cc2)NC(=O)OC2COC3(C)OCCC23)cc1 (centres unmarked) [Compound I-448]"
target_system = "UniProt P04585"
value_reported = 2.31

[[record]]
compound = "COc1ccc(S(=O)(=O)N(CC(C)C)CC(O)C(Cc2ccc(N(C)Cc3cc(N4CCCCC4=O)ccc3-c3sc4c(c3C(=O)O)CC(C)(C)CC4)cc2)NC(=O)OC2COC3(C)OCCC23)cc1 (centres unmarked) [Compound I-731]"
target_system = "UniProt P04585"
value_reported = 1.96

[[record]]
compound = "COc1ccc(S(=O)(=O)N(CC2CC2)CC(O)C(Cc2ccc(NCc3ccccc3-c3sc4c(c3C(=O)O)CC(C)(C)CC4)cc2)NC(=O)OC2COC3(C)OCCC23)cc1 (centres unmarked) [Compound I-472]"
target_system = "UniProt P04585"
value_reported = 2.27

[[record]]
compound = "COc1ccc(S(=O)(=O)N(CC(C)C)CC(O)C(Cc2ccc(N3CCc4cccc(-c5sc6c(c5C(=O)O)CC(C)(C)CC6)c4C3)cc2)NC(=O)OC2COC3(C)OCCC23)cc1 (centres unmarked) [Compound I-191]"
target_system = "UniProt P04585"
value_reported = 2.22


Report IC50 for every entry below.
1. COc1ccc(S(=O)(=O)N(CC(C)C)CC(O)C(Cc2ccc(OCc3cccc(-c4ccc(F)cc4F)c3C(=O)O)cc2)NC(=O)OC2COC3(C)OCCC23)cc1 (centres unmarked) [Compound I-153]
2. COc1ccc(S(=O)(=O)N(CC(C)C)CC(O)C(Cc2ccc(N(C)Cc3cc(N4CCC4)ccc3-c3sc4c(c3C(=O)O)CC(C)(C)CC4)cc2)NC(=O)OC2COC3(C)OCCC23)cc1 (centres unmarked) [Compound I-708]
3. COc1ccc(S(=O)(=O)N(CC(C)C)CC(O)C(Cc2ccc(N(C)Cc3ccncc3-c3sc4c(c3C(=O)O)CC(C)(C)CC4)cc2)NC(=O)OC2COC3(C)OCCC23)cc1 (centres unmarked) [Compound I-489]
4. COc1ccc(S(=O)(=O)N(CC(C)C)CC(O)C(Cc2ccc(OCc3ccccc3-n3nc4c(c3C(=O)O)CC3(CCCC3)CC4)cc2)NC(=O)OC2COC3(C)OCCC23)cc1 (centres unmarked) [Compound I-53]
5. CC(C)CN(CC(O)C(Cc1ccc(CCc2sc3c(c2C(=O)O)CC(C)(C)CC3)cc1)NC(=O)OC1COC2(C)OCCC12O)S(=O)(=O)c1ccc2ncsc2c1 (centres unmarked) [Compound I-889]
6. COc1ccc(S(=O)(=O)N(CC2CCCC2)CC(O)C(Cc2ccc(OCc3nn(C)cc3-c3sc4c(c3C(=O)O)CC(C)(C)CC4)cc2)NC(=O)OC2COC3(C)OCCC23)cc1 (centres unmarked) [Compound I-199]
7. COc1ccc(S(=O)(=O)N(CC(C)C)CC(O)C(Cc2ccc(OCc3ccccc3-c3sc(N4CCC(C)(C)CC4)nc3C(=O)O)cc2)NC(=O)OC2COC3OCCC23)cc1 (centres unmarked) [Compound I-844]
8. COc1ccc(S(=O)(=O)N(CC(C)C)C[C@@H](O)[C@H](Cc2ccc(OCc3ccc(-c4ccc(F)cc4F)cc3-c3noc(=O)[nH]3)cc2)NC(=O)O[C@H]2CO[C@@]3(C)OCC[C@@H]23)cc1 [Compound I-21]

OUT:
[1.08, 1.65, 1.81, 0.83, 1.49, 2.35, 1.01, 1.39]

Please report IC50 for every entry that follows.
1. COc1ccc(S(=O)(=O)N(CC(C)C)CC(O)C(Cc2ccc(NCc3ccc(-c4sc5c(c4C(=O)O)CC(C)(C)CC5)cc3O)cc2)NC(=O)OC2COC3(C)OCCC23)cc1 (centres unmarked) [Compound I-555]
2. COc1ccc(S(=O)(=O)N(CC(C)C)CC(O)C(Cc2ccc(NCc3ncn4cc(-c5sc6c(c5C(=O)O)CC(C)(C)CC6)ccc34)cc2)NC(=O)OC2COC3(C)OCCC23)cc1 (centres unmarked) [Compound I-323]
3. COc1ccc(S(=O)(=O)N(CC(C)C)CC(O)C(Cc2ccc(N(C)Cc3cocc3-c3sc4c(c3C(=O)O)CC(C)(C)CC4)cc2)NC(=O)OC2COC3(C)OCCC23)cc1 (centres unmarked) [Compound I-570]
4. COc1ccc(S(=O)(=O)N(CC(C)C)CC(O)C(Cc2ccc(NCc3nc(N4CCCC4)sc3-c3ccc(-c4sc5c(c4C(=O)O)CC(C)(C)CC5)cc3)cc2)NC(=O)OC2COC3(C)OCCC23)cc1 (centres unmarked) [Compound I-714]

OUT:
1: 1.68; 2: 2.41; 3: 1.87; 4: 4.5

For each of the compounds below, state IC50.
1. COc1ccc(S(=O)(=O)N(CC(C)C)CC(O)C(Cc2ccc(N(Cc3ccccc3)Cc3sc4c(c3C(=O)O)CC(C)(C)CC4)cc2)NC(=O)OC2COC3(C)OCCC23)cc1 (centres unmarked) [Compound I-47]
2. COc1ccc(S(=O)(=O)N(CC(C)C)CC(O)C(Cc2ccc(OC3CCCN(Cc4sc5c(c4C(=O)O)CC(C)(C)CC5)C3)cc2)NC(=O)OC2COC3(C)OCCC23)cc1 (centres unmarked) [Compound I-198]

OUT:
1. 5.41
2. 1.95

Value sought for every listed compound: IC50.
1. COc1ccc(S(=O)(=O)N(CC(C)C)CC(O)C(Cc2ccc(NCc3cccc(-c4sc5c(c4C(=O)O)CC(C)(C)CC5)c3Cl)cc2)NC(=O)OC2COC3(C)OCCC23)cc1 (centres unmarked) [Compound I-544]
2. COc1ccc(S(=O)(=O)N(CC(C)C)CC(O)C(Cc2ccc(NC(=O)Nc3ccccc3-c3sc4c(c3C(=O)O)CC(C)(C)CC4)cc2)NC(=O)OC2COC3(C)OCCC23)cc1 (centres unmarked) [Compound I-270]

OUT:
1: 3.65; 2: 3.38
